Every entry's value here was drawn from patent US20250326839A1.

# assayed system: T1, human TREM2 (human, UniProt Q9NZC2 19-174, limits assumed)
# T1 construct: also called triggering receptor expressed on myeloid cells 2
# T1 sequence: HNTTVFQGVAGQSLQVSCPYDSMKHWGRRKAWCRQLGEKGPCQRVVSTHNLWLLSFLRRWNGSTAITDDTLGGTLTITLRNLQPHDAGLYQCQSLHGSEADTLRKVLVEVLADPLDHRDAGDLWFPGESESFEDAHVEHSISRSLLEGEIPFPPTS
# assay explanation: 2nd screen, 10 nM
endpoint label: Binding Signal

Query: // fetch Binding Signal given entry V50 (antibody, V domains shown, also called 6E7 variant V50) VH: EVQLVQSGAEVKKPGESLKISCKGSGYSFGSYWIAWVRQMPGKGLEWMGVIYPGDSDTRYSPSFQGQVTISADKSISTAYLQWSSLKASDTAMYFCARQRTFYYDSSDYLDYWGQGTLVTVSS VL: DIQMTQSPSSVSASVGDRVTITCRASQGISSWLAWYQQKPGKAPKLLIYAASSRQNGVPSRFSGSGSGTDFTLTISSLQPEDFATYFCQQADSLPRTFGQGTKLEIK
Response: 4.16 fold over 6E7 parental antibody

Query: // fetch Binding Signal given entry V85 (antibody, V domains shown, also called 6E7 variant V85) VH: EVQLVQSGAEVKKPGESLKISCKGSGYSFRSYWIAWVRQMPGKGLEWMGTIYPGDSDTRYSPSFQGQVTISADKSISTAYLQWSSLKASDTAMYFCARSRTFYYDSSDYFDYWGQGTLVTVSS VL: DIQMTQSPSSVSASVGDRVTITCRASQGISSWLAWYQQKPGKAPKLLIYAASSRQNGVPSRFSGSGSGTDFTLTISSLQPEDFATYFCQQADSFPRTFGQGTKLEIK
Response: 5.37 fold over 6E7 parental antibody

Query: // fetch Binding Signal given entry V12 (antibody, V domains shown, also called 6E7 variant V12) VH: EVQLVQSGAEVKKPGESLKISCKGSGYEFTSYWIAWVRQMPGKGLEWMGIIYPGDSDVRYSPSFQGQVTISADKSISTAYLQWSSLKASDTAMYFCARGRTFYYDSSDYFDYWGQGTLVTVSS VL: DIQMTQSPSSVSASVGDRVTITCRASQGISSWLAWYQQKPGKAPKLLIYAASSLQRGVPSRFSGSGSGTDFTLTISSLQPEDFATYFCQQADSFPRTFGQGTKLEIK
Response: 2.58 fold over 6E7 parental antibody

Query: // fetch Binding Signal given entry V88 (antibody, V domains shown, also called 6E7 variant V88) VH: EVQLVQSGAEVKKPGESLKISCKGSGYSFGSYWIAWVRQMPGKGLEWMGIIYPGDSDTRYSPSFQGQVTISADKSISTAYLQWSSLKASDTAMYFCARQRTFYYDSSDYFDYWGQGTLVTVSS VL: DIQMTQSPSSVSASVGDRVTITCRASQGISSWLAWYQQKPGKAPKLLIYAASRLQRGVPSRFSGSGSGTDFTLTISSLQPEDFATYFCQQADSSPRTFGQGTKLEIK
Response: 5.3 fold over 6E7 parental antibody

Query: // fetch Binding Signal given entry V76 (antibody, V domains shown, also called 6E7 variant V76; LV-109/HV-110) VH: EVQLVQSGAEVKKPGESLKISCKGSGYSFGSYWIAWVRQMPGKGLEWMGIIYPGDSDTRYSPEFQGQVTISADKSISTAYLQWSSLKASDTAMYFCARQRTFYYDSSDYSDYWGQGTLVTVSS VL: DIQMTQSPSSVSASVGDRVTITCRASQGISSWLAWYQQKPGKAPKLLIYAASSLQKGVPSRFSGSGSGRDFTLTISSLQPEDFATYFCQQADSFPRTFGQGTKLEIK
Response: 4.93 fold over 6E7 parental antibody

More entries:
Query: // fetch Binding Signal given entry V89 (antibody, V domains shown, also called 6E7 variant V89) VH: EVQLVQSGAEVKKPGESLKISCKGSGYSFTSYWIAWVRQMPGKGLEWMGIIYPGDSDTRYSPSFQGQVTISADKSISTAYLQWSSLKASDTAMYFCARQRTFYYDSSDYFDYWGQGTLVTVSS VL: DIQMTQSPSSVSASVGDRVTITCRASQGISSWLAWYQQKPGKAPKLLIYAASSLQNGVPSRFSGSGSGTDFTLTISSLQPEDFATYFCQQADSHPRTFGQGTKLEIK
Response: 1.46 fold over 6E7 parental antibody

Query: // fetch Binding Signal given entry V27 (antibody, V domains shown, also called 6E7 variant V27; LV-103/HV-103) VH: EVQLVQSGAEVKKPGESLKISCKGSGYSFTSYWIAWVRQMPGKGLEWMGIIYPGDSDTRYAPSFQGQVTISADKSISTAYLQWSSLKASDTAMYFCVRSRTFYYDSSDYFDYWGQGTLVTVSS VL: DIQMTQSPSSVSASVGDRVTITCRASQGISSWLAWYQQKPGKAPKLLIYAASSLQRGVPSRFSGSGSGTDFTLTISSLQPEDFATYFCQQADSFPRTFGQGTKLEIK
Response: 5.69 fold over 6E7 parental antibody

Query: // fetch Binding Signal given entry V28 (antibody, V domains shown, also called 6E7 variant V28) VH: EVQLVQSGAEVKKPGESLKISCKGSGYSFQSYWIAWVRQMPGKGLEWMGTIYPGDSDTRYSPSFQGQVTISADKSISTAYLQWSSLKASDTAMYFCARQRTFFYDSSDYFDYWGQGTLVTVSS VL: DIQMTQSPSSVSASVGDRVTITCRASQGISSWLAWYQQKPGKAPKLLIYAASSLQSGVPSRFSGSGSGTDFTLTISSLQPEDFATYFCQQADSLPRTFGQGTKLEIK
Response: 3.61 fold over 6E7 parental antibody

Query: // fetch Binding Signal given entry V51 (antibody, V domains shown, also called 6E7 variant V51) VH: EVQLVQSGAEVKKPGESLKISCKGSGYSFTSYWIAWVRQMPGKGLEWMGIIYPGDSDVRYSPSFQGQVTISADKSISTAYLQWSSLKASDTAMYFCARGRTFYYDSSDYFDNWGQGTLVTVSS VL: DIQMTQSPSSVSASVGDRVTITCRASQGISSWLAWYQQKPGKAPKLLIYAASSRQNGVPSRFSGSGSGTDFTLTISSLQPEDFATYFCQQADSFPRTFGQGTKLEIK
Response: 3.18 fold over 6E7 parental antibody

Query: // fetch Binding Signal given entry V61 (antibody, V domains shown, also called 6E7 variant V61) VH: EVQLVQSGAEVKKPGESLKISCKGSGYSFSSYWIAWVRQMPGKGLEWMGIIYPGDSDTRYNPSFQGQVTISADKSISTAYLQWSSLKASDTAMYFCARGRTFYYDSSDYFDYWGQGTLVTVSS VL: DIQMTQSPSSVSASVGDRVTITCRASQGISSWLAWYQQKPGKAPKLLIYAASSLVNGVPSRFSGSGSGTDFTLTISSLQPEDFATYFCQQADSLPRTFGQGTKLEIK
Response: 5.22 fold over 6E7 parental antibody
